Every entry's value here was drawn from patent US20250009876A1.

TARGET OF ASSAY: T1, PACAP27 (Pituitary Adenylate Cyclase-Activating Polypeptide, 27 amino acids) (human, the C-terminal leucine is amidated)
T1 construct: also called human PACAP27
T1 peptide: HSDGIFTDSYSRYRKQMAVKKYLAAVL
PROCEDURE DETAILS: SPR (ProteOn XPR36), antibody amine-coupled, peptide analyte, 1:1 Langmuir fit
RECORDED METRIC: pKd
In textbook form, pKd equals minus log to base ten of the concentration in mol/L.

BINDER	pKd
Ab20 (antibody, human IgG1, kappa, N297A, V domains shown, Full-length anti-PACAP antibody; rabbit/human chimeric) VH: QSVEESGGRLVTPGTPLTLTCTVSGIDLSSYYMSWVRQAPGKGLEWIGFIDTDGSAYYATWAKGRFTISKTSTTVDLKITSPTTEDTATYFCARDLDLWGPGTLVTVSS VL: AAVLTQTPSPVSAAVGGTVSISCQSSESVYSNYLAWFQQKPGQPPKFLIYEASKLASGVPSRFKGSGSGTQFTLTISDVQCDDAGTYYCAGGYSSEGVAFGGGTEVVVKR	10.15

Could you now look at the following binder, please?
## Input Looking for the measured pKd of Ab1.H (antibody, V domains shown) VH: EVQLVESGGGLVQPGGSLRLSCAASGFTVSSAVMNWVRQAPGKGLEWIGSIVASGTTYYASSANGRFTISRDNSKNTLYLQMNSLRAEDTAVYYCARGGGEFFIWGQGTLVTVSS VL: DIQMTQSPSTLSASVGDRVTITCQSSESVYSNYLSWYQQKPGKAPKFLIYQASNLASGVPSRFSGSGSGTEFTLTISSLQPDDFATYYCAGGYSENIVGFGGGTKVEIKR , can you help?
## Output 10.89
